Attribution: PubChem BioAssay (NCI)

Tested on: HOP-18 NSCLC
Test: NCI tumour cell line growth inhibition, 48 h
Here the recorded TGI is given for each entry.

MOLECULE | STUDY_TARGET | TGI
N#C/C(=C\c1cccc(Cl)c1Cl)c1ccccc1 | HOP-18 NSCLC | > 90.4 µM
CCCCN(CCCC)C(=O)C(=O)C(C(=O)c1ccc(OC)cc1)c1ccc(OC)cc1 (stereo unspecified) | HOP-18 NSCLC | > 100 µM
CN(C)CCn1c2c3ccccc3ccc2c2oc(=O)c3ccccc3c21 | HOP-18 NSCLC | 35.3 µM
NC(=O)c1ccccc1NC(=O)C(=O)C(C(=O)c1ccc(Cl)c(Cl)c1)C1OC(=O)c2ccccc21 (stereo unspecified) | HOP-18 NSCLC | > 100 µM
COc1ccc(OC)c(N2CC(N)C2=O)c1 (stereo unspecified) | HOP-18 NSCLC | > 100 µM
Cc1ccc(/C=C/C(=O)CCN(C)C)cc1 | HOP-18 NSCLC | 38.4 µM
O=C(Nc1ccccc1-c1nn(C(=S)Nc2ccccc2)c(=S)n(C(=S)Nc2ccccc2)c1=O)C(F)(F)F | HOP-18 NSCLC | > 100 µM
O=C(/C=C/c1ccc([N+](=O)[O-])cc1)c1ccc(NCc2nc3ccccc3[nH]2)cc1 | HOP-18 NSCLC | 31.3 µM
S=c1sc2c(n1-c1ccccc1)NC=NC2S (stereo unspecified) | HOP-18 NSCLC | 92.1 µM
COc1ccc(/C=c2\sc3n(c2=O)CCN=3)cc1 | HOP-18 NSCLC | > 100 µM
COc1ccc(C)cc1-c1cc(Sc2ccccc2)c(-c2cc(C)ccc2OC)o1 | HOP-18 NSCLC | > 31.6 µM
